Numbers sourced from patent US7479484B2.

Assay: Cytotoxicity in PBMC (tetrazolium dye reduction)
Format: cell-based
Details: human, peripheral blood mononuclear cells (PBMC), highest concentration tested 80 μg/ml, called an estimate, read-out: TC50 (concentration decreasing cell viability by 50%)
Where a SMILES comes first, the peptide text is derived from it. [ ]: non-standard residue; d: D form. dPhe(F5) = N[C@H](Cc1c(F)c(F)c(F)c(F)c1F)C(=O)O; dBpa = N[C@H](Cc1ccc(C(=O)c2ccccc2)cc1)C(=O)O; dCha = N[C@H](CC1CCCCC1)C(=O)O
measurement_label: CC50

Param item = N=C(N)NCCC[C@@H](NC(=O)[C@@H](CCCNC(=N)N)NC(=O)[C@@H](CCC(N)=O)NC(=O)[C@@H](CCCNC(=N)N)NC(=O)[C@@H](CCCNC(=N)N)NC(=O)[C@@H](CCCNC(=N)N)NC(=O)[C@@H](CC1CCCCC1)NC(=O)[C@@H](Cc1c(F)c(F)c(F)c(F)c1F)NC(=O)[C@@H](CO)NC(=O)[C@@H](Cc1c[nH]c2ccccc12)NC(=O)[C@@H](CO)NC(=O)[C@H](N)Cc1ccc(C(=O)c2ccccc2)cc1)C(=O)O [CBP501] (H-[dBpa][dS][dW][dS][dPhe(F5)][dCha][dR][dR][dR][dQ][dR][dR]-OH) ; retrieve measured CC50.
> 80 µg/mL

* * *

Assay: Cytotoxicity in monocyte/macrophages (tetrazolium dye reduction)
Assay type: cell-based, human
Conditions: human, highest concentration tested 80 μg/ml, called an estimate, read-out: TC50 (concentration decreasing cell viability by 50%)
Where a SMILES comes first, the peptide text is derived from it. [ ]: non-standard residue; d: D form. dPhe(F5) = N[C@H](Cc1c(F)c(F)c(F)c(F)c1F)C(=O)O; dBpa = N[C@H](Cc1ccc(C(=O)c2ccccc2)cc1)C(=O)O; dCha = N[C@H](CC1CCCCC1)C(=O)O
measurement_label: CC50

Param item = N=C(N)NCCC[C@@H](NC(=O)[C@@H](CCCNC(=N)N)NC(=O)[C@@H](CCC(N)=O)NC(=O)[C@@H](CCCNC(=N)N)NC(=O)[C@@H](CCCNC(=N)N)NC(=O)[C@@H](CCCNC(=N)N)NC(=O)[C@@H](CC1CCCCC1)NC(=O)[C@@H](Cc1c(F)c(F)c(F)c(F)c1F)NC(=O)[C@@H](CO)NC(=O)[C@@H](Cc1c[nH]c2ccccc12)NC(=O)[C@@H](CO)NC(=O)[C@H](N)Cc1ccc(C(=O)c2ccccc2)cc1)C(=O)O [CBP501] (H-[dBpa][dS][dW][dS][dPhe(F5)][dCha][dR][dR][dR][dQ][dR][dR]-OH) ; retrieve measured CC50.
> 80 µg/mL
